Just for reference, paper PMC2756588 is where these values come from.

Form field: SPOT intensity (one value per entry).
# tested.target: T1, Sla1-2, P32790
# T1 sequence (P32790 60-140, looked up): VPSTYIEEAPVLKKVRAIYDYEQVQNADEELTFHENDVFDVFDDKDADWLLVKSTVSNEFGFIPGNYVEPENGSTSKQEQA
# measurement.protocol: SPOT array
# run.conditions: median of control spots 712
I'd appreciate a reply containing only the number, no unit.

Consider the reported SPOT intensity for these binders:
NPNRRAPRRPLSTQH; 4
EQEEIAPSLPSRNSI; 0
TPEIPPPLPPKIMVH; 0
TYNRTAFQIPGDQSI; 0
LLRRTIPKRPFYHVL; 0

Query: What value of SPOT intensity has been recorded for this entry: VPPPMQPPPIESSNL
Response: 2

Query: Name the reported SPOT intensity value associated with the binder IHTRRPSSTSQYLIR
Response: 0
